Tested on: CYP3A4/5
METHOD: CYP450 inhibition assay, midazolam 1′-hydroxylase in human liver microsomes
Format: in vitro ADME
MEASUREMENT CONDITIONS: read-out: IC50, CYP3A4/5 Midazolam 1′-hydroxylase; human liver microsomes 0.1 mg/mL; mean of triplicate
OBSERVABLE: pIC50
The value called pIC50 is obtained by taking minus log10 of the concentration in mol/L.

# example entries with known answers
- SAMPLE SMILES: "C=C[C@H]1CN2CCc3c([nH]c4cccc(OC)c34)[C@@H]2C[C@@H]1/C(=C\\OC)C(=O)OC"
  pIC50: 5.10
- SAMPLE SMILES: "CC[C@@H]1CN2CCc3c([nH]c4cccc(OC)c34)[C@H]2C[C@@H]1/C(=C\\OC)C(=O)OC"
  pIC50: 4.58

I'd like to know its pIC50. The molecule in question is CC[C@H]1CN2CCc3c([nH]c4cccc(OC)c34)[C@@H]2C[C@@H]1/C(=C\OC)C(=O)OC
4.87
